Readings of T/C for the listed compounds
Test system: BDF1 mice, P388 leukemia ip, median survival T/C
assay_overview: NCI In Vivo Anticancer Drug Screen. Data for tumor model P388 Leukemia (intraperitoneal) in B6D2F1 (BDF1) mice
measurement_context: endpoint: median survival time; dose: 200.0 mg/kg/injection; schedule: Q04DX003 (ip); vehicle: saline; higher = longer survival
Toxic doses and inconclusive results are not listed.

Please review the following examples before continuing.
>>> test_value("C[N+](C)(C)CCCC[N+](C)(C)C")
"100 % of control"
>>> test_value("COc1cccc(/C=C(/SC)S(C)=O)c1OC (centres undefined)")
"115 % of control"
>>> test_value("NC(=O)n1nccc1N")
"115 % of control"
>>> test_value("CCC(C)(CC(=O)O)CC(=O)O")
"120 % of control"
>>> test_value("O=C1c2cccc(O)c2C(=O)c2c(OC3OC(CO)C(OC4OC(CO)C(O)C(O)C4O)C(O)C3O)cccc21 (centres undefined)")
"119 % of control"

Query: Short answer please: T/C, BDF1 mice, P388 leukemia ip, median survival T/C, entry Cc1nc2cnn(C)c2nc1C
Reply: 107 % of control

Query: Quick check: T/C on BDF1 mice, P388 leukemia ip, median survival T/C, item O=S(=O)(O)CCC(CO)(CO)CO ?
Reply: 95 % of control

---

Test system: BDF1 mice, P388 leukemia ip, median survival T/C
assay_overview: NCI In Vivo Anticancer Drug Screen. Data for tumor model P388 Leukemia (intraperitoneal) in B6D2F1 (BDF1) mice
measurement_context: endpoint: median survival time; dose: 12.5 mg/kg/injection; schedule: Q01DX009 (ip); vehicle: saline with Tween-80
Inconclusive results and toxic doses are left out. The calls were made as follows: active = survival T/C of 150% or more; inactive = T/C below 125% in these data.
Give one outcome, nothing more. List: active, inactive

Here's what some known entries look like.
>>> qualitative_label("CC(CC(O)C(C)(C)C)C(C)(C)C (configuration not stated)")
"inactive"
>>> qualitative_label("CCCCCCCCC(=O)Nc1ncnc2n[nH]nc12")
"inactive"
>>> qualitative_label("Cc1[nH]c(=O)[nH]c(=O)c1NC(=O)c1ccccc1[N+](=O)[O-]")
"inactive"
>>> qualitative_label("NC(=S)N/N=C/c1ccc(OC(=O)Cc2ccccc2)cn1")
"active"

Query: Would you mind telling me which call this test gave COC1(OC)OC(c2ccccc2)=C(C#N)C(/C=C\c2ccccc2)C1(OC)OC (configuration not stated) ?
Reply: inactive

Query: Test call for this compound, please: Clc1ccc(C(c2ccc(Cl)cc2)C(Cl)(Cl)Cl)cc1
Reply: inactive

Query: Outcome logged for Cc1ccc(NS(=O)(=O)c2ccc([N+](=O)[O-])cc2)cc1 in this assay:
Reply: inactive

Query: State the result this test recorded for O=S(=O)(F)c1ccc(N=C=S)cc1 .
Reply: inactive

Query: Field: outcome | Entry: C=Cc1c(C)c(O)cc2c1-c1ccc(O)c(C)c1CC2
Reply: inactive

Query: How did this test come out for CNC(=S)N/N=C(\C)c1ccccn1 ?
Reply: inactive

Query: Per the records of this test, what outcome belongs to COC(=O)/C=C1\C(C(=O)OC)=Cc2ccccc2N1C ?
Reply: inactive

Query: Could you kindly confirm the outcome this assay logged for NC(=S)N/N=C/c1ccc(OC(=O)COc2ccccc2)cn1 ?
Reply: active

---

Tested on: BDF1 mice, P388 leukemia ip, median survival T/C
assay_overview: NCI In Vivo Anticancer Drug Screen. Data for tumor model P388 Leukemia (intraperitoneal) in B6D2F1 (BDF1) mice
measurement_context: endpoint: median survival time; dose: 100.0 mg/kg/injection; schedule: Q01DX009 (ip); vehicle: saline with Tween-80
Toxic doses and inconclusive results are not listed. The calls were made as follows: active = survival T/C of 150% or more; inactive = T/C below 125% in these data.
Hi! Could you answer with just one of these? t = active, f = inactive

>>> qualitative_label("Cc1c[n+]([O-])cc(C)c1[N+](=O)[O-]")
"f"
>>> qualitative_label("O/N=c1/cc(-c2cccs2)ss1")
"f"
>>> qualitative_label("NC(=S)c1ncc(N)s1")
"f"
>>> qualitative_label("O=C(O)c1ccccc1C(=O)Nc1ccccc1C(F)(F)F")
"f"
>>> qualitative_label("O=C(O)c1cc(C(=O)O)cc(S(=O)(=O)F)c1")
"f"

Query: For this compound, state the assay outcome: COC(=O)C1=C(C)NC(C)=C(C(=O)OC)C1C(C)Cl (stereo unspecified)
Reply: f

Query: GET /call?item= CC(=O)OCC(OC(C)=O)c1cc(/C=N/N(C(C)=O)c2ccccc2)nn1-c1ccccc1 (stereo unspecified) returns the recorded outcome of this test.
Reply: f

Query: Dear all, I need the recorded test outcome for CCOC(=O)C1C(C)OC(=O)C(Br)C1C (stereo unspecified) , thank you.
Reply: f

Query: Recorded test outcome, item Nc1c(C(=O)O)[nH]c(=O)[nH]c1=O
Reply: t

Query: GET /call?item= CCOC(=O)N1CCN(CCCCCOc2ccccc2C2CCCCC2)CC1 returns the recorded outcome of this test.
Reply: f

Query: Hello, I am checking results. What call was entered for COc1ccc2c(c1)C(=O)CC=C(C(=O)O)N2 ?
Reply: f
